Entry source: ChEMBL document CHEMBL1130598

target: Mitogen-activated protein kinase 14 (Rattus norvegicus); experiment: Inhibitory potency evaluated against rat p38 kinase
Sequence (P70618 whole entry): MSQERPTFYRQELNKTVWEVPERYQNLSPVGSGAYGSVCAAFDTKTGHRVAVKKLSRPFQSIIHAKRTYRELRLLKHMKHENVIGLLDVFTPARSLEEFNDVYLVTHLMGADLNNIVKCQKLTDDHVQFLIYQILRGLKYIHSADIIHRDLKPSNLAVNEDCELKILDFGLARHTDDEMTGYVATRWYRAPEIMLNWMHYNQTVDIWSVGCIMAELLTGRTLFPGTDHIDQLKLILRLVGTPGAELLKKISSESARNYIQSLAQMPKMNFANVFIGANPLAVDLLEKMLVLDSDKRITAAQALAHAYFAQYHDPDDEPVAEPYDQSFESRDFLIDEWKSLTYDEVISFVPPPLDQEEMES
Friendly reminder: IC50 below 60 nM is Criterion met, at or above is Criterion not met.

                                   compound                              assay_target        group_label
0  Fc1ccc(-c2nc(-c3ccc(Cl)cc3)[nH]c2-c2ccncc2)cc1  Mitogen-activated protein kinase 14 (Rattus norvegicus)  Criterion not met
1  C[S+]([O-])c1ccc(-c2cc(-c3ccnc4ccccc34)c(-c3ccc(F)cc3)[nH]2)cc1 (configuration not stated)  Mitogen-activated protein kinase 14 (Rattus norvegicus)  Criterion not met
2  C[S+]([O-])c1ccc(-n2nc(-c3ccncc3)c(-c3ccc(F)cc3)c2O)cc1 (configuration not stated)  Mitogen-activated protein kinase 14 (Rattus norvegicus)  Criterion not met
3  Cc1cnccc1-c1cc(-c2ccc([S+](C)[O-])cc2)[nH]c1-c1ccc(F)cc1 (configuration not stated)  Mitogen-activated protein kinase 14 (Rattus norvegicus)  Criterion not met
4  O=c1c(-c2ccc(F)cc2)c(-c2ccncc2)[nH]n1-c1ccc(Cl)cc1  Mitogen-activated protein kinase 14 (Rattus norvegicus)      Criterion met
5  Clc1ccc(-c2[nH]c(-c3ccccc3)cc2-c2ccncc2)cc1  Mitogen-activated protein kinase 14 (Rattus norvegicus)      Criterion met
